Would you mind telling me the reported pIC50 of each entry?
- Tested on: OCI-AML3
- assay_explanation: Growth inhibition of OCI-AML3 cells
- Format: cell-based
- applied_conditions: Homo sapiens, OCI-AML-3; OCI-AML3 cells; read-out: OCI-AML3 IC50
Give bare numbers, as −log10 of the molar value.

Request: Recorded pIC50 of CCCN(CC#CC1=C[C@@H]2C[C@@]3(OC(=O)C=C13)[C@H]1CCCCN21)CCC , please.
Response: 7.15

Request: Then C=C(C)CC#CC1=C[C@@H]2C[C@@]3(OC(=O)C=C13)[C@H]1CCCCN21 ?
Response: 6.70

Request: Then COc1ccc2cc(C#CC3=C[C@@H]4C[C@@]5(OC(=O)C=C35)[C@H]3CCCCN43)ccc2c1 ?
Response: 6.98

Request: Then CCOC#CC1=C[C@@H]2C[C@@]3(OC(=O)C=C13)[C@H]1CCCCN21 ?
Response: 6.66

Request: Then COc1ccc(C#CC2=C[C@@H]3C[C@@]4(OC(=O)C=C24)[C@H]2CCCCN32)cc1 ?
Response: 7.10

Go through the list and state pIC50 for each entry.
1. CN(C)c1ccc(C#CC2=C[C@@H]3C[C@@]4(OC(=O)C=C24)[C@H]2CCCCN32)cc1
2. CN(C)CC#CC1=C[C@@H]2C[C@@]3(OC(=O)C=C13)[C@H]1CCCCN21

Response:
1. 6.98
2. 7.05

Request: Recorded pIC50 of O=C1C=C2C(C#Cc3ccccc3)=C[C@@H]3C[C@@]2(O1)[C@H]1CCCCN31 , please.
Response: 7.10
